Values from the kinase profiling compilation of Christmann-Franck et al. (2016)

Tested on: EGFR (human), P00533 [747-751 del / S ins]
Sequence (P00533 whole entry, looked up, stated change not applied): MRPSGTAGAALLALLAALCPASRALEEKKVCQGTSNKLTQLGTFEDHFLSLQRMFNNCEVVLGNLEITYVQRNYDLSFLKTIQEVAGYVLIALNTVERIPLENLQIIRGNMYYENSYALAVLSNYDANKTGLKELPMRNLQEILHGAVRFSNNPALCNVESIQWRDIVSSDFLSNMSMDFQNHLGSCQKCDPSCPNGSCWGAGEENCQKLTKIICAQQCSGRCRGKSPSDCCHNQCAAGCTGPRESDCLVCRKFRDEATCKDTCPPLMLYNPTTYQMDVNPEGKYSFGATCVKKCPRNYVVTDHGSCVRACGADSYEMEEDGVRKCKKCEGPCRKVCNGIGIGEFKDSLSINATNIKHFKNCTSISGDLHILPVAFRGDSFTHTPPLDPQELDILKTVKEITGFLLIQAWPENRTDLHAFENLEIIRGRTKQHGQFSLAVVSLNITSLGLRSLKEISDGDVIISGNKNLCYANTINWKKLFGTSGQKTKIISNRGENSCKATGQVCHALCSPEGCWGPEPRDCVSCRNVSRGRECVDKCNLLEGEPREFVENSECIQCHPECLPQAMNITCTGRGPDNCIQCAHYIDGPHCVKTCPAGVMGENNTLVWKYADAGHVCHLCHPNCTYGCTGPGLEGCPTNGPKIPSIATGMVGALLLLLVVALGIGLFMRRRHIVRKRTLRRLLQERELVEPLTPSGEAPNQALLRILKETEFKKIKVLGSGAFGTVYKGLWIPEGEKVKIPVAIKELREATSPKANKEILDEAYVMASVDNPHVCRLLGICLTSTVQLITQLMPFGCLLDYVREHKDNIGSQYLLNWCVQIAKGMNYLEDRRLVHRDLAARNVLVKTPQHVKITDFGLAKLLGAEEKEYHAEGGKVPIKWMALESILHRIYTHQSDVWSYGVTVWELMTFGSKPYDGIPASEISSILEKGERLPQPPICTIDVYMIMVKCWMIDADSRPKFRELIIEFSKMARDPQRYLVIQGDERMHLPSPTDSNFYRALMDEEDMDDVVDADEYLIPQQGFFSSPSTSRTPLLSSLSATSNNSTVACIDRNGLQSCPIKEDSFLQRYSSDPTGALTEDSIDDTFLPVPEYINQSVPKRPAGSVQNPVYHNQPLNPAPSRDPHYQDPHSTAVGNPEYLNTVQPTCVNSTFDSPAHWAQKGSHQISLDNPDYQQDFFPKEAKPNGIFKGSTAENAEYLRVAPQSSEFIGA
Procedure summary: KINOMEscan competition binding
Test context: compound 1.0 µM
This listing pairs compounds with measured kinase still bound, per cent of control.
Express your answer in %, writing the number without its unit.

CN(C)C/C=C/C(=O)Nc1cccc(C(=O)Nc2ccc(Nc3nccc(-c4c(-c5ccccc5)nn5ccccc45)n3)cc2)c1 = 3.4
CN(C)C/C=C/C(=O)Nc1cccc(C(=O)Nc2ccc(Nc3nccc(-c4cccnc4)n3)cc2)c1 = 74

In: Report kinase still bound, per cent of control for "CN(C)C/C=C/C(=O)Nc1cccc(C(=O)Nc2ccc(Nc3nccc(/C(C#N)=C4\Nc5ccccc5S4)n3)cc2)c1" please.
Out: 85

In: How about "Cc1cc(NC(=O)c2cccc(NC(=O)/C=C/CN(C)C)c2)ccc1Nc1nccc(-c2cccnc2)n1" ?
Out: 95
